- STUDY_TARGET: KpNupC2 (Klebsiella pneumoniae, UniProt A6T7A8)
- Construct: gene nupC; full-length, C-terminal biotin-acceptor domain tag (pT7-5/-BAD), expressed in E. coli JW2389 (nupC knockout)
- Sequence (A6T7A8 entry or part of it): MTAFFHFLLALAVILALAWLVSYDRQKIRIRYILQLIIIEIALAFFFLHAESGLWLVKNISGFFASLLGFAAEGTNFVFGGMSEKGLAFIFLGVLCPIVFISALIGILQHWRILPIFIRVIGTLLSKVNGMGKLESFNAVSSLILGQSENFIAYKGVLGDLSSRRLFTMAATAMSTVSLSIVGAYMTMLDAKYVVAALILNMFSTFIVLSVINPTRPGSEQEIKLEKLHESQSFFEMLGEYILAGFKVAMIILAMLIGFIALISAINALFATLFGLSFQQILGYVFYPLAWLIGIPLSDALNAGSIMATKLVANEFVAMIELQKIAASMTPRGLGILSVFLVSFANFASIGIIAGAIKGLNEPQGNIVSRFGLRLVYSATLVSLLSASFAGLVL
- TEST_PROTOCOL: inhibition of [3H]-gemcitabine uptake in E. coli JW2389
- Format: cell-based
ENDPOINT_LABEL: Ki (µM)
Answer in µM, number only, no unit symbol.

Please indicate Ki recorded for O=c1ccn([C@@H]2O[C@H](CO)[C@@H](O)[C@H]2O)c(=O)[nH]1
6.1

---

- STUDY_TARGET: KpNupC (Klebsiella pneumoniae, UniProt A0A0H3H172)
- Construct: gene KPHS_38160; full-length, C-terminal biotin-acceptor domain tag (pT7-5/-BAD), expressed in E. coli JW2389 (nupC knockout)
- Sequence (A0A0H3H172 entry or part of it): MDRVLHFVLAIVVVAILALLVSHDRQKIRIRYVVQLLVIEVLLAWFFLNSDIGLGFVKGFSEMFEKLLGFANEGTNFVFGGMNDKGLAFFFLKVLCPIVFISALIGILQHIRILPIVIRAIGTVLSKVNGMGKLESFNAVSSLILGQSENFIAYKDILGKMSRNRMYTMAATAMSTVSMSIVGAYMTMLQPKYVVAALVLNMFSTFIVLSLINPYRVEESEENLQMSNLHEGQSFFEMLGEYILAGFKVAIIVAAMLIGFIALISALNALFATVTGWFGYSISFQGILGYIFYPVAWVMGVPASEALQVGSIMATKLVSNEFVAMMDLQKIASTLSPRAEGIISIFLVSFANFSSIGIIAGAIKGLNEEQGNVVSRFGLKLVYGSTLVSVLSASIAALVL
- TEST_PROTOCOL: inhibition of [3H]-gemcitabine uptake in E. coli JW2389
- Type: cell-based
- TEST_CONDITIONS: read-out: Inhibition by Other Nucleosides / Ki (μM) (Cytidine)
ENDPOINT_LABEL: Ki (µM)
Answer in µM, number only, no unit symbol.

Report the value of Ki obtained on KpNupC (Klebsiella pneumoniae, UniProt A0A0H3H172) for Nc1ccn([C@@H]2O[C@H](CO)[C@@H](O)[C@H]2O)c(=O)n1 .
6.7
